- ASSAY SYSTEM: T1, human TREM2 (human, UniProt Q9NZC2 19-174, limits assumed)
- T1 construct: also called triggering receptor expressed on myeloid cells 2
- T1 sequence: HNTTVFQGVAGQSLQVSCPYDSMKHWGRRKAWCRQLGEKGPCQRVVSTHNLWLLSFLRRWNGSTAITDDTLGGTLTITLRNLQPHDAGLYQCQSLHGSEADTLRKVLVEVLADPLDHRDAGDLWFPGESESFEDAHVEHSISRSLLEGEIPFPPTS
- ASSAY: 1st screen, 110 nM Ab
READOUT LABEL: Binding Signal

Field: example entries. Status: answers known.
V56 (antibody, V domains shown, also called 6E7 variant V56) VH: EVQLVQSGAEVKKPGESLKISCKGSGYSFTSYWIAWVRQMPGKGLEWMGIIYPGDSDTRYQPSFQGQVTISADKSISTAYLQWSSLKASDTAMYFCARQRTFYYDSSDYFDYWGQGTLVTVSS VL: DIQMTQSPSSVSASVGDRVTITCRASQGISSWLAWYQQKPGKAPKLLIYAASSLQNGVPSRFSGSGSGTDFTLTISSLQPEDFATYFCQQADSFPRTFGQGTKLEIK	0.23 fold over 6E7 parental antibody
V11 (antibody, V domains shown, also called 6E7 variant V11) VH: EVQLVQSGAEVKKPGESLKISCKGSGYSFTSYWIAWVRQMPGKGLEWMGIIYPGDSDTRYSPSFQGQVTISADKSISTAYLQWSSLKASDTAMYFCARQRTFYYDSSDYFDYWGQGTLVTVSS VL: DIQMTQSPSSVSASVGDRVTITCRASQGISSWLAWYQQKPGKAPKLLIYAASSLQNGVPSRFSGSGSGTDFTLTISSLQPEDFATYFCQQAASFPRTFGQGTKLEIK	0.79 fold over 6E7 parental antibody
V81 (antibody, V domains shown, also called 6E7 variant V81) VH: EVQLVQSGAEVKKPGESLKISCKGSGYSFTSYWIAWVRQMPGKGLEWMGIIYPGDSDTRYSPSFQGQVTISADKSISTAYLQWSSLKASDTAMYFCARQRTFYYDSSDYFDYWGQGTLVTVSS VL: DIQMTQSPSSVSASVGDRVTITCRASQGISSLLAWYQQKPGKAPKLLIYAASSLQNGVPSRFSGSGSGTDFTLTISSLQPEDFATYFCQQADSFPRTFGQGTKLEIK	0.17 fold over 6E7 parental antibody

Exercise: // Binding Signal lookup, key: V80 (antibody, V domains shown, also called 6E7 variant V80) VH: EVQLVQSGAEVKKPGESLKISCKGSGYSFTSYWIAWVRQMPGKGLEWMGIIYPGDSDTRYSPSFQGQVTISADKSISTAYLQWSSLKASDTAMYFCARQRNFYYDSSDYFDYWGQGTLVTVSS VL: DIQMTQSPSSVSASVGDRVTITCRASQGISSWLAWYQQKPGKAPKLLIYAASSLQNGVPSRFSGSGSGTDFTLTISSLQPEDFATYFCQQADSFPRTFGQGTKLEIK
Solution: 0.59 fold over 6E7 parental antibody

Exercise: Recorded Binding Signal for V78 (antibody, V domains shown, also called 6E7 variant V78) VH: EVQLVQSGAEVKKPGESLKISCKGSGYRFTSYWIAWVRQMPGKGLEWMGIIYPGDSDTRYSPSFQGQVTISADKSISTAYLQWSSLKASDTAMYFCARQRTFYYDSSDYFDYWGQGTLVTVSS VL: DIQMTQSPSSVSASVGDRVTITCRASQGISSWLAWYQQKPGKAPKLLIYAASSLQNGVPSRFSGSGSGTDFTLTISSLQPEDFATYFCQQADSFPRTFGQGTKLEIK , please?
Solution: 0.86 fold over 6E7 parental antibody
